Provide the recorded IC50 for the entries that follow.
Assay target: OXA-2 (Escherichia coli, UniProt P0A1V9)
Construct: AmpC, TEM-1, KPC-2 or OXA-2 domain excluding signal peptide was amplified with PCR; made in house; host or cells: Escherichia coli BL21 (DE3), pET-28b(+)
Sequence (P0A1V9 22-275): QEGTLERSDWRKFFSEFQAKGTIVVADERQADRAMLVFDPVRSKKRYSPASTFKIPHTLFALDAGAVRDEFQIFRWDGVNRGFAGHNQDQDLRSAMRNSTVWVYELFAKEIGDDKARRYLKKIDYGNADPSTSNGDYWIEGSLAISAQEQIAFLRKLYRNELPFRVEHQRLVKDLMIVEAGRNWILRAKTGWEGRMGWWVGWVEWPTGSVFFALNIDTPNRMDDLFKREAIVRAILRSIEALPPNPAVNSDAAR
Protocol: biochemical
Parameters: species or system P. aeruginosa
Run conditions: OXA-2 2 nM, 100 μM nitrocefin, pre-incubation 30° C. 10 minutes; read-out: β-Lactamase inhibitory activity OXA-2 (IC50)

// query Please give the documented IC50 of C[C@@H](CN)ONC(=O)[C@@H]1CC[C@@H]2CN1C(=O)N2OS(=O)(=O)O [Example 68]
// result 1000 to 3000 nM

// query Please give the documented IC50 of O=C(NNC(=O)[C@@H]1CC[C@@H]2CN1C(=O)N2OS(=O)(=O)O)[C@@H]1CCCN1 [Example 38]
// result 1000 to 3000 nM

// query Please give the documented IC50 of NCCONC(=O)[C@@H]1CC[C@@H]2CN1C(=O)N2OS(=O)(=O)O [Example 59]
// result 1000 to 3000 nM

// query Please give the documented IC50 of CCCNCCONC(=O)[C@@H]1CC[C@@H]2CN1C(=O)N2OS(=O)(=O)O [Example 63]
// result 1000 to 3000 nM

// query Please give the documented IC50 of C[C@]1(Cn2ccnn2)[C@H](C(=O)O)N2C(=O)C[C@H]2S1(=O)=O [TAZ, tazobactam, reference compound]
// result < 100 nM

// query Please give the documented IC50 of O=C(NOCC(=O)N1CCCNCC1)[C@@H]1CC[C@@H]2CN1C(=O)N2OS(=O)(=O)O [Example 92]
// result 100 to 1000 nM

// query Please give the documented IC50 of O=C(NNC(=O)[C@@H]1CC[C@@H]2CN1C(=O)N2OS(=O)(=O)O)[C@@H]1CCCCN1 [Example 36]
// result 3000 to 10000 nM

// query Please give the documented IC50 of O=C(NOCCn1ccnc1S(=O)(=O)O)[C@@H]1CC[C@@H]2CN1C(=O)N2OS(=O)(=O)O [Example 88]
// result 100 to 1000 nM

// query Please give the documented IC50 of NC(=O)[C@@H]1CC[C@@H]2CN1C(=O)N2OS(=O)(=O)O [NXL104, reference compound]
// result 100 to 1000 nM

// query Please give the documented IC50 of O=C(NNC(=O)[C@@H]1CC[C@@H]2CN1C(=O)N2OS(=O)(=O)O)[C@H]1CCCCN1 [Example 37]
// result 1000 to 3000 nM

// query Please give the documented IC50 of O=C(NOCC1CCNCC1)[C@@H]1CC[C@@H]2CN1C(=O)N2OS(=O)(=O)O [Example 85]
// result 100 to 1000 nM

// query Please give the documented IC50 of O=C(NOCCN1CCCNCC1)[C@@H]1CC[C@@H]2CN1C(=O)N2OS(=O)(=O)O [Example 74]
// result 100 to 1000 nM

// query Please give the documented IC50 of NCCC(=O)NNC(=O)[C@@H]1CC[C@@H]2CN1C(=O)N2OS(=O)(=O)O [Example 27]
// result 1000 to 3000 nM

// query Please give the documented IC50 of O=C(NOC[C@@H]1CCCCN1)[C@@H]1CC[C@@H]2CN1C(=O)N2OS(=O)(=O)O [Example 78]
// result 1000 to 3000 nM

// query Please give the documented IC50 of O=C(NOCC1CNC1)[C@@H]1CC[C@@H]2CN1C(=O)N2OS(=O)(=O)O [Example 82]
// result 100 to 1000 nM

// query Please give the documented IC50 of CC(C)NCCONC(=O)[C@@H]1CC[C@@H]2CN1C(=O)N2OS(=O)(=O)O [Example 64]
// result 1000 to 3000 nM

// query Please give the documented IC50 of O=C(NOC1CNC1)[C@@H]1CC[C@@H]2CN1C(=O)N2OS(=O)(=O)O [Example 79]
// result 1000 to 3000 nM

// query Please give the documented IC50 of CN(C)CCONC(=O)[C@@H]1CC[C@@H]2CN1C(=O)N2OS(=O)(=O)O [Example 65]
// result 1000 to 3000 nM

// query Please give the documented IC50 of NNC(=O)[C@@H]1CC[C@@H]2CN1C(=O)N2OS(=O)(=O)O [Example 17]
// result 3000 to 10000 nM
